Target: T1, recombinant human ASM protein (human, UniProt P17405 47-630)
T1 construct: Recombinant human ASM in solution; also called acid sphingomyelinase (ASM) protein
T1 sequence: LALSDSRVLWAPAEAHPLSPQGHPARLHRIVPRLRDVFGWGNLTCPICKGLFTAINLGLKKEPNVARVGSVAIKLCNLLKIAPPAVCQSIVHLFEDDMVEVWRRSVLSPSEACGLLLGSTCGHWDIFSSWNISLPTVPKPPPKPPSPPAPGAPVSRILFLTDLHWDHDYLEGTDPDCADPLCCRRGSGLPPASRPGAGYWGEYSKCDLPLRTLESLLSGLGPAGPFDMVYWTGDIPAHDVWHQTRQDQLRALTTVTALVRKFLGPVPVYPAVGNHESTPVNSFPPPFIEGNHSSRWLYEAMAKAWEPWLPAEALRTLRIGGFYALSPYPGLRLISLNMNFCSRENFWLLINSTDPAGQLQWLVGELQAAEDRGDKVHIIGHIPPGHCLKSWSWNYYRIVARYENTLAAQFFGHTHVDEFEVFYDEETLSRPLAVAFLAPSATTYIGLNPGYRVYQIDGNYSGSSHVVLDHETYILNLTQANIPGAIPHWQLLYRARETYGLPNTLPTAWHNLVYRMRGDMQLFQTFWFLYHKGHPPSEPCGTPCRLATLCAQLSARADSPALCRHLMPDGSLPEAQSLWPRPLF
Test: BLI (Octet), antibody on AHC sensor
RECORDED METRIC: pKd
Just the number, please; pKd means minus log10 of the concentration in mol/L.

Look over these answered cases.
>  <BINDER>
#9104v-L37 (antibody, human IgG4 S228P, lambda, V domains shown, Full-length IgG, lambda) VH: EVQLLESGGGLVQPGGSLRLSCAASGFTFSNYYMSWVRQAPGKGLEWVSGIYYGSGNIYYADSVKGRFTISRDNSKNTLYLQMNSLRAEDTAVYYCARDTPGFDYWGQGTLVTVSS VL: QSVLTQPPSASGTPGQRVTISCTGSSSNIGNNAVNWYQQLPGTAPKLLIYYDSYRASGVPDRFSGSKSGTSASLAISGLRSEDEADYYCGAWDYSLSAYVFGGGTKLTVLG

>  <pKd>
8.90

$$$$
>  <BINDER>
#9104v-L28 (antibody, human IgG4 S228P, lambda, V domains shown, Full-length IgG, lambda) VH: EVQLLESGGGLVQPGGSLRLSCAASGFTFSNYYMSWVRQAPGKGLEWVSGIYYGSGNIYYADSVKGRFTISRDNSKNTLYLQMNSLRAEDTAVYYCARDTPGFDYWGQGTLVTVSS VL: QSVLTQPPSASGTPGQRVTISCTGSSSNIGNNAVNWYQQLPGTAPKLLIYYDSFRRSGVPDRFSGSKSGTSASLAISGLRSEDEADYYCGAWDYSLSAYVFGGGTKLTVLG

>  <pKd>
8.98

$$$$

Okay, next one:
Sample #9104v-L34 (antibody, human IgG4 S228P, lambda, V domains shown, Full-length IgG, lambda) VH: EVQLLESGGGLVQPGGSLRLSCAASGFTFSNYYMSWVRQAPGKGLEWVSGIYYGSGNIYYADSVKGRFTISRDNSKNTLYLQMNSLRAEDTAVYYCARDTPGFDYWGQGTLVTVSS VL: QSVLTQPPSASGTPGQRVTISCTGSSSNIGNNAVNWYQQLPGTAPKLLIYYDSYQASGVPDRFSGSKSGTSASLAISGLRSEDEADYYCGAWDYSLSAYVFGGGTKLTVLG ; pKd observed: 8.79
